# System: Enterococcus faecalis
# assayInfo: In vitro antibacterial activity against Enterococcus faecalis ATCC 29212 (E. f. 034) vancomycin sensitive
# Format: functional
reportedEndpoint: MIC (µg/mL)
Value expressed in µg/mL; do not type the unit.

Data request: I'd like to know its MIC. The compound in question is `CCCCCC(=O)NC[C@H]1CN(c2cc(F)c3c(c2)OC[C@@H]2CCCN32)C(=O)O1`
Data returned: 32

Data request: Same again, this time with `C/C(S)=N\C[C@H]1CN(c2cc(F)c3c(c2)OC[C@@H]2CCCN32)C(=O)O1`
Data returned: 1

Data request: Same again, this time with `CC(C)C(=O)NC[C@H]1CN(c2ccc3c(c2)OC[C@@H]2CCCN32)C(=O)O1`
Data returned: 32

Data request: Same again, this time with `C=CC(=O)NC[C@H]1CN(c2cc(F)c3c(c2)OC[C@@H]2CCCN32)C(=O)O1`
Data returned: 4

Data request: Same again, this time with `CC(C)C(=O)NC[C@H]1CN(c2cc(F)c3c(c2)OC[C@@H]2CCCN32)C(=O)O1`
Data returned: 16

Data request: Same again, this time with `N=C(S)NC[C@H]1CN(c2cc(F)c3c(c2)OC[C@@H]2CCCN32)C(=O)O1`
Data returned: 1

Data request: Same again, this time with `O=C(NC[C@H]1CN(c2ccc3c(c2)OC[C@@H]2CCCN32)C(=O)O1)C(F)F`
Data returned: 4

Data request: Same again, this time with `O=CNC[C@H]1CN(c2ccc3c(c2)OC[C@@H]2CCCN32)C(=O)O1`
Data returned: 16

Data request: Same again, this time with `CC(C)O/C(S)=N\C[C@H]1CN(c2cc(F)c3c(c2)OC[C@@H]2CCCN32)C(=O)O1`
Data returned: 8

Data request: Same again, this time with `CCCCCCC(=O)NC[C@H]1CN(c2cc(F)c3c(c2)OC[C@@H]2CCCN32)C(=O)O1`
Data returned: 32

Data request: Same again, this time with `CC(=O)NC[C@H]1CN(c2cc(F)c3c(c2)OC[C@@H]2CCCN32)C(=O)O1`
Data returned: 2

Data request: Same again, this time with `O=C1O[C@@H](C/N=C(/S)N2CCSCC2)CN1c1cc(F)c2c(c1)OC[C@@H]1CCCN21`
Data returned: 16

Data request: Same again, this time with `O=C1O[C@@H](C/N=C(/S)N2CCCC2)CN1c1cc(F)c2c(c1)OC[C@@H]1CCCN21`
Data returned: 32

Data request: Same again, this time with `CCCC/C(S)=N\C[C@H]1CN(c2cc(F)c3c(c2)OC[C@@H]2CCCN32)C(=O)O1`
Data returned: 2

Data request: Same again, this time with `CCO/C(S)=N\C[C@H]1CN(c2cc(F)c3c(c2)OC[C@@H]2CCCN32)C(=O)O1`
Data returned: 2

Data request: Same again, this time with `CCCC(=O)NC[C@H]1CN(c2cc(F)c3c(c2)OC[C@@H]2CCCN32)C(=O)O1`
Data returned: 4

Data request: Same again, this time with CN[C@H](CC(C)C)C(=O)N[C@H]1C(=O)N[C@@H](CC(N)=O)C(=O)N[C@H]2C(=O)N[C@H]3C(=O)N[C@H](C(=O)N[C@H](C(=O)O)c4cc(O)cc(O)c4-c4cc3ccc4O)[C@H](O)c3ccc(c(Cl)c3)Oc3cc2cc(c3O[C@@H]2O[C@H](CO)[C@@H](O)[C@H](O)[C@H]2O[C@H]2C[C@](C)(N)[C@H](O)[C@H](C)O2)Oc2ccc(cc2Cl)[C@H]1O [VANCOMYCIN]
Data returned: 2

Data request: Same again, this time with `CCCCC(=O)NC[C@H]1CN(c2cc(F)c3c(c2)OC[C@@H]2CCCN32)C(=O)O1`
Data returned: 16

Data request: Same again, this time with `CC(=O)NC[C@H]1CN(c2ccc3c(c2)OC[C@@H]2CCCN32)C(=O)O1`
Data returned: 16

Data request: Same again, this time with `O=C(CCl)NC[C@H]1CN(c2cc(F)c3c(c2)OC[C@@H]2CCCN32)C(=O)O1`
Data returned: 2

Data request: Same again, this time with `O=C1O[C@@H](C/N=C/S)CN1c1cc(F)c2c(c1)OC[C@@H]1CCCN21`
Data returned: 1

Data request: Same again, this time with `CS/C(S)=N\C[C@H]1CN(c2cc(F)c3c(c2)OC[C@@H]2CCCN32)C(=O)O1`
Data returned: 1
